Data credit: patent US20230056252A1

For each of the binders below, state its koff.
Biological target: T1, biotinylated CD3 epsilon:delta heterodimer protein (Amsbio AMS.CDD-H52WO) (Homo sapiens (Human), UniProt P07766 23-126; P04234 22-105)
T1 construct: also called CD3 heterodimer
Assay: BLI (Octet), CD3 on SA sensor, Fab analyte;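 note: fabs dipped at several concentrations (0–300 nM) onto CD3-loaded streptavidin biosensors, 100 s association then 300 s dissociation in buffer, pH 7.4, sensors blocked with biocytin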
One number for each entry, in s⁻¹.

BINDER	koff, s⁻¹
huSP34.11.8 Fab-HF (Fab, V domains shown, also called HC11+LC8) VH: EVQLVESGGGLVQPGGSLRLSCAASGFTFSTYAMNWVRQAPGKGLEWVGRIRSKYNNYATYYAASVKGRFTISRDDSKNSLYLQMNSLRTEDTAVYYCVRHGNFGHSYVSWFAYWGQGTLVTVSS VL: QAVVTQEPSLTVSPGGTVTLTCGSSTGAVTTGHYANWVQQKPGQAPRGLIGGTNKRAPGVPARFSGSLLGGKAALTISGAQPEDEAEYYCALWYSNRWVFGGGTKLTVL	0.00165

Return reported koff values for all items listed beneath this line.
1. huSP34.12.7 Fab-HF (Fab, V domains shown, also called HC12+LC7) VH: EVQLVESGGGLVQPGGSLRLSCAASGFTFSTYAMNWVRQAPGKGLEWVARIRSKYNNYATYYAASVKGRFTISRDDSKNSLYLQMNSLRTEDTAVYYCVRHGNFGHSYVSWFAYWGQGTLVTVSS VL: QAVVTQEPSLTVSPGGTVTLTCRSSTGAVTTGHYANWVQQKPGQAPRGLIGGTNKRAPGVPARFSGSLLGGKAALTISGAQPEDEAEYYCALWYSNLWVFGGGTKLTVL
2. huSP34.11.7 Fab-HF (Fab, V domains shown, also called HC11+LC7) VH: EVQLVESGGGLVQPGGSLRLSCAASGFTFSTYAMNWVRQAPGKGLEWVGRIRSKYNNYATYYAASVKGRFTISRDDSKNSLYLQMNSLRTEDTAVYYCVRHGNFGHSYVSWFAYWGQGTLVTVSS VL: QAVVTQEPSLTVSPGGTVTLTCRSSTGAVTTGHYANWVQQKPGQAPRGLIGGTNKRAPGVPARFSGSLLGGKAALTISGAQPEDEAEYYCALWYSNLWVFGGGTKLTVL

A:
0.00244
0.00212
